target: Cytochrome P450 2C9 (Homo sapiens); assay: enhancers of cytochrome P450 2C9 turnover – biochemical, luminescence, primary screen (AID 1024); conditions: recombinant CYP2C9, luciferin-H conversion, at 5 µM, hits give high values, factor 1 = untreated enzyme, 0 = blocked;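 note: 0 = sulfaphenazole-blocked wells and 1 = vehicle-only wells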
Out of some 96,000 compounds screened, about 1,400 (1.5%) were called active. The entries come from a sample that favours actives as a whole.
EXPERIMENTAL READOUT: activation factor
Enter the number alone.

The following molecules have reported results that may help.
- O=C1Nc2c(Br)cc(Br)cc2C1(O)N1CCOCC1 (stereo unspecified): 3
- COc1ccc(S(=O)(=O)NC(CC(=O)NCc2ccccc2OC)c2ccco2)cc1 (stereo unspecified): 1.4
- CCOC(=O)n1c(SCC(=O)N(CC)CC)nc2ccccc21: 0.7

Now consider a different molecule.
Identify the measured activation factor of O=C(CCc1ccc(S(=O)(=O)N2CCOCC2)cc1)Nc1ccc2ccccc2c1 for Cytochrome P450 2C9 (Homo sapiens).
0.4

Origin of values: PubChem BioAssay AID1024
